subject_of_test: BRD9 (Homo sapiens, UniProt Q9H8M2)
Sequence (Q9H8M2 1-597): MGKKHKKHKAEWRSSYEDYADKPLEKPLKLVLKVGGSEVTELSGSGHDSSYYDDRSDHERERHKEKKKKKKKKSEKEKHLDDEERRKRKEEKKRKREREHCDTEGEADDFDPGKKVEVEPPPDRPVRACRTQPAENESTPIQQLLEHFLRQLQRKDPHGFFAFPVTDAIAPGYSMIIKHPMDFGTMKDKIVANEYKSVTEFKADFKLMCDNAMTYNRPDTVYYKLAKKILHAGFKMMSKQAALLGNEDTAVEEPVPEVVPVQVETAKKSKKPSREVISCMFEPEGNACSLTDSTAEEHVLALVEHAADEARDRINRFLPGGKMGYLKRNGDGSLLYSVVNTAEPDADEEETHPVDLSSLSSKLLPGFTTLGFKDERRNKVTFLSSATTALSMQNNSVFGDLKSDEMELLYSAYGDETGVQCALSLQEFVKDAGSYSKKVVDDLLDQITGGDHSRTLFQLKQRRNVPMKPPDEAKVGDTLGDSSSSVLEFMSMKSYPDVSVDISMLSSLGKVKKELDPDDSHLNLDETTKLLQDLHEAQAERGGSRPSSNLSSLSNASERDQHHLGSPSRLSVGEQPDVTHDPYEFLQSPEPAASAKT
run_description: Degradation of BRD9 (IF), immunofluorescence in MV4-11 cells, 24 hours (Assay Protocol 2)
Type: cell-based
Design: A suspension of MV4-11 cells (ATCC CRL-9591) was prepared; host or cells: MV4-11
condition_info: Table 4; BRD9 degradation, determined according to Assay Protocol 2; read-out: DC50^2
Reported DC50 by item:

COc1cc(-c2cn(C)c(=O)c(C)c2C)cc(OC)c1CN1C2CC1CN(C(=O)/C(C#N)=C/c1cccc(Br)n1)C2 (mixture of isomers) = 25 to 200 nM
COc1cc(-c2cn(C)c(=O)c(C)c2C)cc(OC)c1CN1C2CC1CN(C(=O)/C(C#N)=C/c1nccs1)C2 (mixture of isomers) = 25 to 200 nM
COc1cc(-c2cn(C)c(=O)c(C)c2C)cc(OC)c1CN1CCN(C(=O)[C@@H]2CN(C(=O)/C(C#N)=C/c3nccs3)C[C@H]2c2cccc(C)c2)CC1 = > 200 nM

Value wanted: DC50 (BRD9 (Homo sapiens, UniProt Q9H8M2)) of entry `COc1cc(-c2cn(C)c(=O)c(C)c2C)cc(OC)c1CN1CCCN(C(=O)/C(C#N)=C/C(C)(C)C)CC1` < 25 nM

What would you report for `COc1cc(-c2cn(C)c(=O)c(C)c2C)cc(OC)c1CN1CCN(C(=O)/C(C#N)=C/C(C)(C)C)CC12CC2` ? < 25 nM
